These data points were gathered from ChEMBL document CHEMBL1128083.

Organism: Oryctolagus cuniculus
Assay: Tested for percent inhibition of Neutral metalloprotease in rabbit chondrocytes at 10 uM concentration
Type: cell-based

Compound | Units of measure | inhibition
N#CC1=C(N)Oc2c(ccc3ccccc23)C1c1cccc([N+](=O)[O-])c1 (stereo not given) | % | 102
N#CC1=C(N2C(=O)CCC2=O)Oc2c(ccc3ccccc23)C1c1cccnc1 (stereo not given) | % | 25
N#CC1C(=O)NC2=C(CCc3ccccc32)C1c1cccc([N+](=O)[O-])c1 (stereo not given) | % | 20
N#CC1=C(N2C(=O)CCC2=O)Oc2c(ccc3ccccc23)C1c1ccc(F)c(Cl)c1 (stereo not given) | % | 111
N#CC1=C(N)Oc2c(ccc3ccccc23)C1c1cccnc1 (stereo not given) | % | 100
N#CC1=C(N)OC2=C(CCc3ccccc32)C1c1cccc([N+](=O)[O-])c1 (stereo not given) | % | 104
N#Cc1c(O)nc2c(c1-c1cccc([N+](=O)[O-])c1)CCc1ccccc1-2 | % | 36
N#CC1=C(n2cccc2)Oc2c(ccc3ccccc23)C1c1cccc([N+](=O)[O-])c1 (stereo not given) | % | 4
N#CC1=C(N2C(=O)CCC2=O)Oc2c(ccc3ccccc23)C1c1cccc([N+](=O)[O-])c1 (stereo not given) | % | 86
N#Cc1c(N)nc2c(c1-c1cccc([N+](=O)[O-])c1)CCc1ccccc1-2 | % | 42
